# System: Male ICR mice
# protocol details: Analgesic activity test: mouse writhing test by inducing with phenyl-p-quinone
# Type: in vivo
# condition set: po, dose 3 mg/kg, p.o., read-out: Analgesic effect (% Inhibition)
Record criterion met whenever inhibition in vivo at 3 mg/kg is at 30% or higher; record criterion not met when lower.

C[C@@H](NC(=O)c1coc(Oc2cccc(C3CC3)c2)n1)c1cc(F)c(NS(C)(=O)=O)c(F)c1 = criterion met
CC(C)c1cccc(-c2nc(C(=O)N[C@H](C)c3cc(F)c(NS(C)(=O)=O)c(F)c3)cs2)c1 = criterion not met
CS(=O)(=O)Nc1ccc(CNC(=O)c2ccc(-c3ccccc3C(F)(F)F)o2)cc1F = criterion met

q: Item C[C@@H](NC(=O)c1coc(Oc2cccc(C(F)(F)F)c2)n1)c1cc(F)c(NS(C)(=O)=O)c(F)c1 with inhibition in vivo at 3 mg/kg of 30% or above?
a: criterion met

q: Also, C[C@@H](NC(=O)c1csc(-c2cccc(C(F)(F)F)c2)n1)c1cc(F)c(NS(C)(=O)=O)c(F)c1 please.
a: criterion met

q: Entry to check: CC1CCc2c(Oc3nc(C(=O)N[C@H](C)c4cc(F)c(NS(C)(=O)=O)c(F)c4)co3)cccc21 (stereo partly shown)
a: criterion not met

q: What do we get for C[C@@H](NC(=O)c1ccc(-c2cccc(C3CC3)c2)o1)c1cc(F)c(NS(C)(=O)=O)c(F)c1 ?
a: criterion met

====

# tested on: vanilloid receptor (Rattus norvegicus)
# Construct: DRG nerve cells from the primary culture of 2 days were equilibrated; endogenous in cells; host or cells: primary culture of dorsal root ganglion neurons from neonatal SD rats
# Sequence (O35433 whole entry): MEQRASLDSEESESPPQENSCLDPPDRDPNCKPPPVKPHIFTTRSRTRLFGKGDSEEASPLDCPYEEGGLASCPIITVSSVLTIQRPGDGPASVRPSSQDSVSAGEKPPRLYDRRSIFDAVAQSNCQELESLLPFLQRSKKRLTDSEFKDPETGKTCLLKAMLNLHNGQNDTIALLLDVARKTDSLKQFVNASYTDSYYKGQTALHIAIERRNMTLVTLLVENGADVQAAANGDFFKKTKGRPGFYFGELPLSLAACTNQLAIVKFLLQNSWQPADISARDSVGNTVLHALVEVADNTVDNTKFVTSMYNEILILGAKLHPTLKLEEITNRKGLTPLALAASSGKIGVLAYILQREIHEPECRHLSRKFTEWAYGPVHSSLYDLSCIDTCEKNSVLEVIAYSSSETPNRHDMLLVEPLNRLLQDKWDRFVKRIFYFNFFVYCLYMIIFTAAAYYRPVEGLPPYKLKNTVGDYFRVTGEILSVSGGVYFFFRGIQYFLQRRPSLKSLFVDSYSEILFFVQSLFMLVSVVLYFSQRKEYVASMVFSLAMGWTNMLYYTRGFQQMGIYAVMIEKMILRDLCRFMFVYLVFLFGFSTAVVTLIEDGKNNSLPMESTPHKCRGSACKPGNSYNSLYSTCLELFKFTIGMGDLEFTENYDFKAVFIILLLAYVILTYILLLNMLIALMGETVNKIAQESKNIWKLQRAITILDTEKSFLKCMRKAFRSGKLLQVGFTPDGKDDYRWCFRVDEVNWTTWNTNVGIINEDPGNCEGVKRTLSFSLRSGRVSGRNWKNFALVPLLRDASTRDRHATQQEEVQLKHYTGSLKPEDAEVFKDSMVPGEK
# protocol details: 45Ca influx test (antagonist calcium uptake test) in rat DRG neurons stimulated with capsaicin
# Type: cell-based
# condition set: neonatal SD rat DRG neurons; capsaicin 0.5 μM; 45Ca
measure: pIC50
Bear in mind: pIC50 is minus log10 of a mol/L concentration; give just that figure.

Examples with answers:
C[C@@H](NC(=O)c1coc(-c2ccc(F)c(C(F)(F)F)c2)n1)c1cc(F)c(NS(C)(=O)=O)c(F)c1 = 5.77
C[C@@H](NC(=O)c1coc(-c2ccc(C(C)(C)C)cc2)n1)c1cc(F)c(NS(C)(=O)=O)c(F)c1 = 5.62
C[C@@H](NC(=O)c1coc(Oc2cccc(C3CCC3)c2)n1)c1cc(F)c(NS(C)(=O)=O)c(F)c1 = 6.25
C[C@@H](NC(=O)c1coc(-c2cc(C(F)(F)F)cc(C(F)(F)F)c2)n1)c1cc(F)c(NS(C)(=O)=O)c(F)c1 = 6.85
C[C@@H](NC(=O)c1coc(-c2cccc(Cl)c2Cl)n1)c1cc(F)c(NS(C)(=O)=O)c(F)c1 = 5.92
CC(C)c1cccc(Oc2nc(C(=O)N[C@H](C)c3cc(F)c(NS(C)(=O)=O)c(F)c3)cs2)c1 = 5.70

q: Looking for the measured pIC50 of C[C@@H](NC(=O)c1ccc(-c2ccccc2C(F)(F)F)o1)c1cc(F)c(NS(C)(=O)=O)c(F)c1 , can you help?
a: 6.89

====

# tested on: vanilloid receptor (Rattus norvegicus)
# Construct: DRG nerve cells from the primary culture of 2 days were equilibrated; endogenous in cells
# protocol details: 45Ca influx test (antagonist calcium uptake test) in rat DRG neurons stimulated with capsaicin
# condition set: neonatal SD rat DRG neurons; capsaicin 0.5 μM; 45Ca
# Procedure: 1) Separation of spinal dorsal root ganglia (DRG) in newborn rats and primary culture thereof Neonatal (2-3 clay old or younger than 2-3 day old) SD rats were put in ice for 5 minutes to anesthetize and disinfected with 70% ethanol. DRG of all part of spinal cord were dissected (Wood et al., 1988, J. Neurosci. 8, pp 3208-3220) and collected in DME/F12 medium to which 1.2 g/l sodium bicarbonate and 50 mg/l gentamycin were added. […]
Friendly reminder: IC50 below 200 nM is 1.0, at or above is 0.0.

Worked set:
CC(C)c1cccc(Oc2nc(C(=O)N[C@H](C)c3cc(F)c(NS(C)(=O)=O)c(F)c3)co2)c1 = 1.0
C[C@@H](NC(=O)c1coc(-c2ccc(Cl)c(C(F)(F)F)c2)n1)c1cc(F)c(NS(C)(=O)=O)c(F)c1 = 0.0
C[C@@H](NC(=O)c1coc(Oc2ccc(C(C)(C)C)cc2)n1)c1cc(F)c(NS(C)(=O)=O)c(F)c1 = 0.0
C[C@@H](NC(=O)c1coc(Oc2cccc(C(F)(F)F)c2)n1)c1cc(F)c(NS(C)(=O)=O)c(F)c1 = 0.0
CC1CCc2c(Oc3nc(C(=O)N[C@H](C)c4cc(F)c(NS(C)(=O)=O)c(F)c4)co3)cccc21 (stereo partly shown) = 1.0

q: Problem: For the molecule Cc1ccc(C(C)C)cc1Oc1nc(C(=O)N[C@H](C)c2cc(F)c(NS(C)(=O)=O)c(F)c2)co1 , is IC50 under 200 nM?
a: 0.0

q: How about this molecule: C[C@@H](NC(=O)c1ccc(-c2cccc(C(F)(F)F)c2)o1)c1ccc(NS(C)(=O)=O)c(F)c1
a: 0.0
